measured.on: Insulin
Sequence (P01308 25-54, chain 1 of 2): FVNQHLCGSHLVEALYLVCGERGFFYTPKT
Sequence (P01308 90-110, chain 2 of 2): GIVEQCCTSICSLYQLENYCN
experimental.details: polyreactivity ELISA on insulin coat, 100 nM
hey, just use Condition met if measured Insulin polyreactivity score is less than 4, otherwise Condition not met

>  <binder>
MIAB166 (antibody, V domains shown) VH: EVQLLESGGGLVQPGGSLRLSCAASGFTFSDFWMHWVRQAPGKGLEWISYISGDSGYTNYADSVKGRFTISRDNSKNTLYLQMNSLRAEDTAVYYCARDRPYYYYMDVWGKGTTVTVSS VL: DIQMTQSPSSLSASVGDRVTITCRASQSVSRSLEWYQQKPGKAPKLLIYAASSLQSGVPSRFSGSGSGTDFTLTISSLQPEDFATYYCQQYKSYPVTFGQGTKVEIK

>  <answer.label>
Condition not met

$$$$
>  <binder>
MIAB152 (antibody, V domains shown) VH: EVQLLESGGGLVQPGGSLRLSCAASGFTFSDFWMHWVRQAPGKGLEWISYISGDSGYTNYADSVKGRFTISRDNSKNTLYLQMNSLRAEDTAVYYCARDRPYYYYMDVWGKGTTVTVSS VL: DIQMTQSPSSLSASVGDRVTITCRASQSVSSYLAWYQQKPGKAPKLLIYAASSLQSGVPSRFSGSGSGTDFTLTISSLQPEDFATYYCQQYKSYPVTFGQGTKVEIK

>  <answer.label>
Condition met

$$$$
>  <binder>
MIAB155 (antibody, V domains shown) VH: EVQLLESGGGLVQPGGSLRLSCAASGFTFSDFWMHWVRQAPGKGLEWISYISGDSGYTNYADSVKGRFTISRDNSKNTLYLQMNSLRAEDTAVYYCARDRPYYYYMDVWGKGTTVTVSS VL: DIQMTQSPSSLSASVGDRVTITCRASQSISSSLNWYQQKPGKAPKLLIYAASSLQSGVPSRFSGSGSGTDFTLTISSLQPEDFATYYCQQYKSYPVTFGQGTKVEIK

>  <answer.label>
Condition met

$$$$
>  <binder>
MIAB150 (antibody, V domains shown) VH: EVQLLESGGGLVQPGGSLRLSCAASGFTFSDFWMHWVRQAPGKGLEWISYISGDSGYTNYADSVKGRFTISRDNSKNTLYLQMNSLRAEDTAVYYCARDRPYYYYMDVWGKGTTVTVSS VL: DIQMTQSPSSLSASVGDRVTITCRASQSISRYLAWYQQKPGKAPKLLIYAASSLQSGVPSRFSGSGSGTDFTLTISSLQPEDFATYYCQQYKSYPVTFGQGTKVEIK

>  <answer.label>
Condition met

$$$$
>  <binder>
MIAB168 (antibody, V domains shown) VH: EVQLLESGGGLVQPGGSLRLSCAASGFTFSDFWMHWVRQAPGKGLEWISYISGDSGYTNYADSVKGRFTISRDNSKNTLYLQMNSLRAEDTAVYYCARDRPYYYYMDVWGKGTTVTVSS VL: DIQMTQSPSSLSASVGDRVTITCRASQSVSRSLLWYQQKPGKAPKLLIYAASSLQSGVPSRFSGSGSGTDFTLTISSLQPEDFATYYCQQYKSYPVTFGQGTKVEIK

>  <answer.label>
Condition not met

$$$$
